In this section we review reported responders at 50 mg/kg values for a set of compounds.
# System: Strep. pyogenes
# Test: in vivo activity in mice infected with a lethal inoculum of Strep. pyogenes
# Condition Description: Streptococcus pyogenes, oral, multiple dosing, read-out: IN VIVO Strep. pyogenes, number of survivors among the treated animals, PO (data in parenthesis)
# Experimental: In determining the in vivo activity of the quinoxaline-1,4-dioxides of this invention, the test compound is administered to mice which have been infected by […] injection of a lethal inoculum of pathogenic bacteria. The test compound is administered using a multiple dosing regimen and using either the oral (PO) or the subcutaneous (SC) route. […] At the end of the test, the activity of the compound is assessed by counting the number of survivors among the treated animals. […]
Give the value in % but do not write % after it.

Answered cases to consult:
{"columns": ["Compound", "Target Or Test System", "Test Value"],
 "data": [
  ["O=C(NCCCO)c1c(CSCCO)[n+]([O-])c2ccccc2[n+]1[O-] [NHCH2 CH2 CH2 OH; SCH2 CH2 OH; H]", "Strep. pyogenes", 30],
  ["O=C(NCCO)c1c(CSCCO)[n+]([O-])c2ccccc2[n+]1[O-] [NHCH2 CH2 OH; SCH2 CH2 OH; H]", "Strep. pyogenes", 50],
  ["CCCNC(=O)c1c(CS(=O)(=O)CCCN(C)C)[n+]([O-])c2ccccc2[n+]1[O-] [NHCH2 CH2 CH3; SO2 (CH2)3 N(CH3)2; H]", "Strep. pyogenes", 80],
  ["CCNC(=O)c1c(CSCCO)[n+]([O-])c2ccccc2[n+]1[O-] [NHCH2 CH3; SCH2 CH2 OH; H]", "Strep. pyogenes", 20],
  ["O=C(NCCO)c1c(CS(=O)(=O)CCCN2CCCCC2)[n+]([O-])c2ccccc2[n+]1[O-] [NHCH2 CH2 OH; drawing 22; H]", "Strep. pyogenes", 20]
]}

Ask: Please report responders at 50 mg/kg for the following compound: CCCCNC(=O)c1c(CS(=O)(=O)CCO)[n+]([O-])c2ccccc2[n+]1[O-] [NHBu; SO2 CH2 CH2 OH; H]
Result: 40

Ask: Please report responders at 50 mg/kg for the following compound: CCSCCNC(=O)c1c(CS(=O)(=O)CCO)[n+]([O-])c2ccccc2[n+]1[O-] [NHCH2 CH2 SCH2 CH3; SO2 CH2 CH2 OH; H]
Result: 0

Ask: Please report responders at 50 mg/kg for the following compound: CCN(CC)CCCS(=O)(=O)Cc1c(C(=O)NC)[n+]([O-])c2ccccc2[n+]1[O-] [NHCH3; SO2 (CH2)3 N(CH2 CH3)2; H]
Result: 0
